Please go through the items and note down their CC50.
assay-info: Cytotoxicity against human HK2 cells by MTT assay
Assay type: cell-based, HK-2
Numbers only, in µM.

Input: Please report the measured CC50 for CC(C)(C)C(=O)OCOP(=O)(COCCn1cnc2c(N)ncnc21)OCOC(=O)C(C)(C)C [ADEFOVIR DIPIVOXIL]
Output: 488

# next compound below
Input: Please report the measured CC50 for CC(C(=O)OCCCOP(=O)(COCCn1cnc2c(N)ncnc21)OCCOC(=O)[C@@H](N)C(C)C)c1cccc(C(=O)c2ccccc2)c1 (stereo partly drawn)
Output: 840

====

assay-info: Selectivity index, ratio of CC50 for HepG2(2.2.15) infected with HBV DNA to EC50 for Hepatitis B virus infected in human HepG2(2.2.15) cells
measured-metric: Ratio CC50/EC50
Numbers only.

Reference set, count: 3
Input: Please report the measured Ratio CC50/EC50 for CC[C@H](C)[C@H](N)C(=O)SCCCOP(=O)(COCCn1cnc2c(N)ncnc21)OCCCOC(=O)C(C)c1cccc(C(=O)c2ccccc2)c1 (some centres undefined)
Output: 22.29

Input: Please report the measured Ratio CC50/EC50 for CC[C@H](C)[C@H](N)C(=O)SCCCOP(=O)(COCCn1cnc2c(N)ncnc21)OCCCOC(=O)C(C)c1ccc(-c2ccccc2)c(F)c1 (some centres undefined)
Output: 9.88

Input: Please report the measured Ratio CC50/EC50 for CC(C(=O)OCCCOP(=O)(COCCn1cnc2c(N)ncnc21)OCCCSC(=O)[C@@H](N)Cc1ccccc1)c1ccc(-c2ccccc2)c(F)c1 (some centres undefined)
Output: 4.12

# next compound below
Input: Please report the measured Ratio CC50/EC50 for CC(C)Cc1ccc(C(C)C(=O)OCCCOP(=O)(COCCn2cnc3c(N)ncnc32)OCCOC(=O)[C@@H](N)C(C)C)cc1 (some centres undefined)
Output: 65.56
